Would you mind telling me the reported IC50 of each entry?
System under test: full-length beta-Catenin (Uniprot ID P35222) (Homo sapiens, UniProt P35222)
Construct: 10 nM full-length beta-Catenin (Uniprot ID P35222)
Sequence (P35222 whole entry): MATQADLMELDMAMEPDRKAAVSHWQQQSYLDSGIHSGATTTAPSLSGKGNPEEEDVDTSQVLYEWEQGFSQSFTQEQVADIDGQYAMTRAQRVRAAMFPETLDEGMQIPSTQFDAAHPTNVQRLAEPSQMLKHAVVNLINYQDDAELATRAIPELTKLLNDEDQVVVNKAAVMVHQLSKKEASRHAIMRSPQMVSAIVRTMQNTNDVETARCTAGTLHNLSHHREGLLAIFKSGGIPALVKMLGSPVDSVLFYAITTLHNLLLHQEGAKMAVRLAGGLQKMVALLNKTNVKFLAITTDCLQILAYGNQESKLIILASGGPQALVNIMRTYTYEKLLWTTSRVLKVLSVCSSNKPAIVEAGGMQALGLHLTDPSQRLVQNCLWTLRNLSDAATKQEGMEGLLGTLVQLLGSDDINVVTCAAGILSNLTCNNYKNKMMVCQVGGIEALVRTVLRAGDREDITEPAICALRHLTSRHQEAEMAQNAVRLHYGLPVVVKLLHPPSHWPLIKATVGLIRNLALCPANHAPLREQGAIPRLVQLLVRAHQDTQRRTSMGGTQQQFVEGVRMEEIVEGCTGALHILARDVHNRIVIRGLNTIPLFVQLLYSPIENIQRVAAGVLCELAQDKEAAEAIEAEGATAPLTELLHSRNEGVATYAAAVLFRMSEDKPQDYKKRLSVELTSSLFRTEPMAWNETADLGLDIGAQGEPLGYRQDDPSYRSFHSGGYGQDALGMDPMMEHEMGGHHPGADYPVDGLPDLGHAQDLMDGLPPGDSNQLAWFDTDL
Assay text: Fluorescence polarization IC50 (beta-catenin / 5FAM-TCF4 10-53 competition)
Type: binding
Condition label: fluorescence polarization; read-out: beta-Catenin FP IC50
Write the quantity with the unit trailing the number.

Examples with their reported IC50 follow.
INSERT INTO assay_data (compound, reported_endpoint, readout_value) VALUES
  ('CC(=O)N1CCC[C@]12CC=CCCCC1(CCCC=CCCCOC(=O)N3CC[C@@](C(=O)N[C@@H](Cc4ccccc4)C(=O)N[C@@H](Cc4csc5ccccc45)C(=O)N[C@@H](CCC(N)=O)C(N)=O)(C3)NC(=O)[C@H](CC(C)C)NC(=O)[C@H](Cc3ccccc3)NC(=O)[C@H](C)NC(=O)[C@H](CCCCNC(C)C)NC(=O)[C@H](CN(CC(=O)O)CC(F)(F)F)NC(=O)[C@H](CC(=O)O)NC1=O)NC(=O)[C@H](CC1CCCCC1)NC(=O)[C@H](CC(N)=O)NC2=O (stereo partly drawn) [I-2341]', 'IC50', '42 nM'),
  ('CC(=O)N1CCC[C@]12CC=CCCCC1(CCCC=CCCCOC(=O)N3CC[C@@](C(=O)N[C@@H](Cc4ccsc4)C(=O)N[C@@H](Cc4csc5ccccc45)C(=O)N[C@@H](CCC(N)=O)C(N)=O)(C3)NC(=O)[C@H](CC(C)C)NC(=O)[C@H](Cc3ccccc3)NC(=O)C(C)(C)NC(=O)[C@H](C)NC(=O)[C@H](CC(=O)O)NC(=O)[C@H](CC(=O)O)NC1=O)NC(=O)[C@H](CC(C)(C)C)NC(=O)[C@H](CC(=O)O)NC2=O (stereo partly drawn) [I-1178]', 'IC50', '54.5 nM'),
  ('CCN(CC(=O)O)C[C@@H]1NC(=O)[C@H](CC(=O)O)NC(=O)C2(CCCC=CCCCOC(=O)N3CC[C@@](C(=O)N[C@@H](Cc4ccccc4Cl)C(=O)N[C@@H](Cc4csc5ccccc45)C(=O)N[C@@H](CCC(N)=O)C(N)=O)(C3)NC(=O)[C@H](CC(N)=O)NC(=O)[C@H](Cc3ccccc3)NC(=O)[C@H](C)NC(=O)[C@H](C)NC1=O)CCCC=CC[C@]1(CCCN1C(C)=O)C(=O)N[C@@H](CC(=O)O)C(=O)N[C@@H](CC(C)(C)C)C(=O)N2 (stereo partly drawn) [I-1622]', 'IC50', '13 nM'),
  ('CC(=O)N1CCC[C@]12CC=CCCCC1(CCCC=CCCCOC(=O)N3CC[C@@](C(=O)N[C@@H](Cc4ccccc4C(F)(F)F)C(=O)N[C@@H](Cc4csc5ccccc45)C(=O)N[C@@H](C)C(N)=O)(C3)NC(=O)[C@H](CC(C)C)NC(=O)[C@H](Cc3ccccc3)NC(=O)[C@H](C)NC(=O)[C@H](CCC(N)=O)NC(=O)[C@H](Cn3cc(CC4(C(=O)O)CCCCC4)nn3)NC(=O)[C@H](CC(=O)O)NC1=O)NC(=O)[C@H](CC(C)(C)C)NC(=O)[C@H](CC(=O)O)NC2=O (stereo partly drawn) [I-2520]', 'IC50', '27 nM'),
  ('CC(C)C[C@H](NC(=O)[C@]12CCN(C1)C(=O)OCCCC=CCCCC1(CCCC=CCCC(=O)N3CCC[C@@]3(C)C(=O)N[C@@H](CC(=O)O)C(=O)N1)C(=O)N[C@@H](C)C(=O)N[C@@H](CC(=O)O)C(=O)N[C@@H](CC(=O)O)C(=O)N[C@@H](C)C(=O)N[C@@H](C)C(=O)N[C@@H](Cc1ccccc1)C(=O)N2)C(=O)N[C@@H](Cc1ccsc1)C(=O)N[C@@H](Cc1csc2ccccc12)C(=O)N[C@@H](CCC(N)=O)C(N)=O (stereo partly drawn) [I-2599]', 'IC50', '234 nM'),
  ('CC(=O)N1CCC[C@]12CC=CCCCC1(CCCC=CCCCOC(=O)N3CC[C@@](C(=O)N[C@@H](Cc4ccccc4C(N)=O)C(=O)N[C@@H](Cc4csc5ccccc45)C(=O)N[C@@H](CCO)C(N)=O)(C3)NC(=O)[C@H](CC(N)=O)NC(=O)[C@H](Cc3ccccc3)NC(=O)[C@H](C)NC(=O)[C@H](CCCCNC(C)C)NC(=O)[C@H](CCC(N)=O)NC(=O)[C@H](CC(=O)O)NC1=O)NC(=O)[C@H](CC1CCCCC1)NC(=O)[C@H](CC(N)=O)NC2=O (stereo partly drawn) [I-2168]', 'IC50', '212 nM');

Below is a list of compounds. For each, state its recorded IC50.
1. CC[C@H](C)[C@@H]1NC(=O)[C@H](CC(=O)O)NC(=O)[C@]2(CC=CCCCC3(CCCC=CCCCCCC[C@@](C)(C(=O)N[C@@H](Cc4ccccc4)C(=O)N[C@@H](Cc4csc5ccccc45)C(=O)N[C@@H](CCC(N)=O)C(N)=O)NC(=O)[C@H](CCC(N)=O)NC(=O)[C@H](Cc4ccccc4)NC(=O)[C@H](CC(C)C)NC(=O)[C@H](C)NC(=O)[C@H](CCC(=O)O)NC(=O)[C@H](CC(=O)O)NC3=O)NC1=O)CCCN2C(C)=O (stereo partly drawn) [I-658]
2. CC(=O)N1CCC[C@]12CC=CCCCC1(CCCC=CCCCOC(=O)N3CC[C@@](C(=O)N[C@@H](Cc4ccsc4)C(=O)N[C@@H](Cc4csc5ccccc45)C(=O)N[C@@H](C)C(N)=O)(C3)NC(=O)[C@H](CC(C)C)NC(=O)[C@H](Cc3ccccc3)NC(=O)[C@H](C)NC(=O)[C@H](C)NC(=O)[C@H](Cc3cccc(C(=O)O)c3)NC(=O)[C@H](CC(=O)O)NC1=O)NC(=O)[C@H](CC(C)(C)C)NC(=O)[C@H](CC(=O)O)NC2=O (stereo partly drawn) [I-2257]
3. CC(=O)N1CCC[C@]12CC=CCCCC1(CCCC=CCCCOC(=O)N3CC[C@@](C(=O)N[C@@H](Cc4ccsc4)C(=O)N[C@@H](Cc4csc5ccccc45)C(=O)N[C@@H](Cc4c[nH]cn4)C(N)=O)(C3)NC(=O)[C@H](CC(N)=O)NC(=O)[C@H](Cc3ccccc3)NC(=O)[C@H](C)NC(=O)[C@H](C)NC(=O)[C@H](CC(=O)O)NC(=O)[C@H](CC(=O)O)NC1=O)NC(=O)[C@H](CC(C)(C)C)NC(=O)[C@H](CC(=O)O)NC2=O (stereo partly drawn) [I-694]

Response:
["546 nM", "15 nM", "5 nM"]
